target: HIPK1 (human) (UniProt Q86Z02); experiment: radiometric filter-binding kinase assay; conditions: compound 10.0 µM
Sequence (Q86Z02 whole entry, looked up): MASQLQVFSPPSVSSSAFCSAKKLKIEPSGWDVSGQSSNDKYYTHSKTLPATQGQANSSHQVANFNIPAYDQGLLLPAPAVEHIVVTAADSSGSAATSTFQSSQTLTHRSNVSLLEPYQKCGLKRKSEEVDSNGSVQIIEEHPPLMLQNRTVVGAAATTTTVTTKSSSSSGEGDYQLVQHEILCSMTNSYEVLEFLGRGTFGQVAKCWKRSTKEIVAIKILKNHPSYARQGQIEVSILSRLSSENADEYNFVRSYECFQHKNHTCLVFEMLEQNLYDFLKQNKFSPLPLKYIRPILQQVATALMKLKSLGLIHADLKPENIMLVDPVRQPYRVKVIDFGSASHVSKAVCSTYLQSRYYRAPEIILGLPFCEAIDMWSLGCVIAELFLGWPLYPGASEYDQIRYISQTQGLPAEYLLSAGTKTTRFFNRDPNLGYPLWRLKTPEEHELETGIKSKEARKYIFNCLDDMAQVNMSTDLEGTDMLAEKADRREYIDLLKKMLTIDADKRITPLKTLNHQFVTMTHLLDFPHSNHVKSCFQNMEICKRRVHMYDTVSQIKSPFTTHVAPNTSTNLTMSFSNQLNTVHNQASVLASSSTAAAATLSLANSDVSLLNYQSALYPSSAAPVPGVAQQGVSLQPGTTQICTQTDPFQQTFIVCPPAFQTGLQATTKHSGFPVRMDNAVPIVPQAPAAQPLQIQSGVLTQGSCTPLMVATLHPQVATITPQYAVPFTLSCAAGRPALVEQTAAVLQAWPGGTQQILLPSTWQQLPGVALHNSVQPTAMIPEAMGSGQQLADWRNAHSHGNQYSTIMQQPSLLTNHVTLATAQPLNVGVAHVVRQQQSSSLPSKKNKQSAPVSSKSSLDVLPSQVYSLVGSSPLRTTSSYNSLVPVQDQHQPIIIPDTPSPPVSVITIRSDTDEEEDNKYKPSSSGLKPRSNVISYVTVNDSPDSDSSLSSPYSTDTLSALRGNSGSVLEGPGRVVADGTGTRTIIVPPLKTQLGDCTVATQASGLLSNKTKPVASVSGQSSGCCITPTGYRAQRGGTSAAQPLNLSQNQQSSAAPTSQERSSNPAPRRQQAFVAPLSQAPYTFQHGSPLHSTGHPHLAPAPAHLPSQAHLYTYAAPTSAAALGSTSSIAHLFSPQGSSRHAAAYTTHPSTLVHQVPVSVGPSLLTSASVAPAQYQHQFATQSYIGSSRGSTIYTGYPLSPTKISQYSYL
Entries and their measured residual activity follow.
The response must be a number in % with no trailing unit.

Oc1ccc(/C=C/c2cc(O)cc(O)c2)cc1 | 48
O=C(NOC[C@H](O)CO)c1ccc(F)c(F)c1Nc1ccc(I)cc1Cl | 92
NC(=O)c1c(NC(=O)C2CC2)sc2c1CCCC2 | 87
O=C(N[C@@H](COc1ccc2[nH]c(=O)[nH]c2c1)c1ccccc1)c1cccn(Cc2ccc(F)c(F)c2)c1=O | 86

In the following, a different compound is considered.
input: Fill: residual activity (HIPK1 (human) (UniProt Q86Z02)) for this compound CCNc1nc(Nc2cc(F)c(C(=O)N3CCOCC3)cc2OC)ncc1C(F)(F)F
output: 35

###

Entries and their measured residual activity follow.
target: CSNK2A1 (human); assay: radiometric filter-binding kinase assay; settings: compound 0.1 µM
The response must be a number in % with no trailing unit.

Solved cases below.
CC1=C(CO)C(=O)O[C@@H]([C@@H](C)[C@H]2CC[C@H]3[C@@H]4C[C@H]5O[C@]56[C@@H](O)C=CC(=O)[C@]6(C)C4CC[C@]23C)C1 (some centres undefined) | 79
COc1ccc(N(C(=O)Nc2c(C)cccc2C)c2cc(Nc3ccc(N4CCN(C)CC4)cc3)ncn2)c(OC)c1 | 100
Cn1c(=O)c2c(ncn2C)n(C)c1=O | 115
CCCCCc1ccc(/C=C/[C@H](O)[C@@H](CO)NC)cc1 | 78
Cc1ccc(-c2ccc3c(ccc4sc5c(c43)NC[C@@H](C)NC5=O)n2)cn1 | 100
C/C(=C1/C(=O)Nc2ccc(NC(N)=O)cc21)c1ccc[nH]1 | 86

input: Determine from records and report residual activity for COc1cc(O)c2c(c1)[C@H]1OC1C[C@H](O)[C@H](O)C(=O)/C=C\C[C@H](C)OC2=O (some centres undefined)
output: 121

input: Determine from records and report residual activity for O=C(O)c1ccc(-c2c[nH]c3ncc(-c4ccccc4)cc23)cc1C1CCCC1
output: 96

input: Determine from records and report residual activity for COc1cc(O)c2c(c1)/C=C/C[C@H](O)[C@H](O)C(=O)/C=C\C[C@H](C)OC2=O
output: 106

###

target: UniProt P51812; experiment: radiometric filter-binding kinase assay; conditions: compound 1.0 µM
Sequence (P51812 whole entry, looked up): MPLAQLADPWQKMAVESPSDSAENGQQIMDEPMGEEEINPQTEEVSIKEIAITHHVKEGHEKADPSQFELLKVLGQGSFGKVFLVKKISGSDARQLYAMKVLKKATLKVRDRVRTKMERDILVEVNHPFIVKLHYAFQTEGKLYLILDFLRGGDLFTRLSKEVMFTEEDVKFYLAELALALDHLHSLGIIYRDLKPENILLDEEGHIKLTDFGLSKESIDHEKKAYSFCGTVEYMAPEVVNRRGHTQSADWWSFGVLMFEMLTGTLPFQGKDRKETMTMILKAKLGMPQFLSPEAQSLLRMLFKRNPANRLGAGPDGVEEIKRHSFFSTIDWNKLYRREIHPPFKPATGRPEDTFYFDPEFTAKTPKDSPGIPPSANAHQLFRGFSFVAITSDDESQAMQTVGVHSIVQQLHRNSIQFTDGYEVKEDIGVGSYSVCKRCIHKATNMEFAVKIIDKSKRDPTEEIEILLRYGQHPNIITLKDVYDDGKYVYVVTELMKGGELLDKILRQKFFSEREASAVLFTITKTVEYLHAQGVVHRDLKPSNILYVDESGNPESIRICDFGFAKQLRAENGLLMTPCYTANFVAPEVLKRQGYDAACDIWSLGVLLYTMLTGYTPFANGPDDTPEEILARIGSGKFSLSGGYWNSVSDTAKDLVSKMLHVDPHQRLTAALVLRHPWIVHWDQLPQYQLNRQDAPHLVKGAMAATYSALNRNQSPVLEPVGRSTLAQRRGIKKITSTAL
readout name: residual activity (%)
The response must be a number in % with no trailing unit.

Solved cases below.
Nc1cccc2c1CN(C1CCC(=O)NC1=O)C2=O (stereo not given) | 93
Cn1c(=O)c2c(ncn2C)n(C)c1=O | 79
CN(C)C/C=C/C(=O)Nc1cccc(C(=O)Nc2ccc(Nc3nccc(-c4cccnc4)n3)cc2)c1 | 80
COc1cc2ncn(-c3cc(OCc4ccccc4S(C)(=O)=O)c(C#N)s3)c2cc1OC | 82
O=C1Nc2nc(-c3c(O)cccc3OCC3CC3)cc(C3CCCNC3)c2CO1 (stereo not given) | 80
O=C(N[C@@H](COc1ccc2[nH]c(=O)[nH]c2c1)c1ccccc1)c1cccn(Cc2ccc(F)c(F)c2)c1=O | 98
FC(F)(F)c1ccc(-c2ccc(Oc3cncc4sc(-c5nn[nH]n5)cc34)cc2)cc1 | 132
COc1cc(C(=O)N2CCOCC2)c(F)cc1Nc1ncc(C(F)(F)F)c(NC2CC2)n1 | 77

input: Determine from records and report residual activity for NS(=O)(=O)OC[C@@H]1C[C@@H](n2ccc3c(N[C@H]4CCc5ccccc54)ncnc32)C[C@@H]1O
output: 100

input: Determine from records and report residual activity for O=C(O)c1ccc(-c2c[nH]c3ncc(-c4ccccc4)cc23)cc1C1CCCC1
output: 97

input: Determine from records and report residual activity for C=CC(=O)N1CCC[C@@H](n2nc(-c3ccc(Oc4ccccc4)cc3)c3c(N)ncnc32)C1
output: 106

input: Determine from records and report residual activity for NC(=O)c1ccc(-c2ccc(Oc3cncc4sc(-c5nn[nH]n5)cc34)cc2)cc1
output: 77

Data credit: the kinase profiling compilation of Christmann-Franck et al. (2016)
